Each entry below carries its recorded Diameter of clearing zone (mm).
system: Clostridium perfringens DSM756; format: cell-based; conditions: Experiment 1; 1/2 MHB pH 6; lysozymes 100 μg/ml, Bacitracin zinc salt 50 μg/ml

molecule: SEQ ID NO: 280: mature GH24 lysozyme from Acremonium alcalophilum, mature sequence of SEQ ID NO: 6 of WO 2013/076259; no LED (protein, listed as Acremonium alcalophilum, mat_peptide (1)..(157), no LED) QCVGPAINSAALNLIKEFEGWRPNIYRDPVGLPTVGYGHLCRDSSCSDVPYPIPLSVANGERLLRSDLATASSVVLNANQYGALVSWAFNVGCGATSTSTLIRRLNAGESPNTVAAQELPRWNKAGGQVLPGLVRRRAAEVELHRTSTSVRALPACS
result_unit: mm
Diameter of clearing zone (mm): 0
//
molecule: SEQ ID NO: 279: mature GH24 lysozyme from Acremonium alcalophilum, mature sequence of SEQ ID NO: 4 of WO 2013/076259; no LED (protein, listed as Acremonium alcalophilum, mat_peptide (1)..(166), no LED) QCVGPEVNSASINLIKEFEGWYPDIYVDPAGYPTVGYGHLCSDSSCSDVSYSIPLSEADGENLLRDDITNFQNCITWQTASSVVLNANQYGALVSWAFNVGCGASESSSLIARLNAGEDPNTVAEEELPRWNQGGGQVLPGLVRRRAAEVELHQIPTDVAALPACS
result_unit: mm
Diameter of clearing zone (mm): 0
//
molecule: SEQ ID NO: 267: mature GH24 lysozyme from Trichoderma harzianum, comprising LED (protein, listed as Trichoderma harzianum, mat_peptide (1)..(248), mature GH24 lysozyme from Trichoderma harzianum, comprising LED) YPITGDVVNCRTGPGTSYAIKKSYKKNQDISISCQTAGTSVNGNSIWDKTADGCYVADYYVKTGSSGYVTKKCTASSGGGSSSSYCKTINSAGVDLIAKWEGFVASPKPDPIGLPTVGYGHLCQQKNCREVKYKFPLTKTTAKELLLDDLPKYTKCLADYLNDKPKLNANQWAALTSWVFNVGCGNAKTSTLVKRLNNGEAANTVAAEELPKWRMAGGKVLPGLEARRKDEVKLFKTASSKQAYPKCQ
result_unit: mm
Diameter of clearing zone (mm): 12
//
molecule: SEQ ID NO: 257: mature GH24 lysozyme from Trichophaea saccata, comprising a GH24 domain and a lysozyme enhancing domain (LED) (protein, listed as Trichophaea saccata, mat_peptide (1)..(245)) YPVKTDLHCRSSPSTSASIVRTYSSGTEVQIQCQTTGTSVQGSNVWDKTQHGCYVADYYVKTGHSGIFTTKCGSSSGGGSCKPPPINAATVALIKEFEGFVPKPAPDPIGLPTVGYGHLCKTKGCKEVPYSFPLTQETATKLLQSDIKTFTSCVSNYVKDSVKLNDNQYGALASWAFNVGCGNVQTSSLIKRLNAGENPNTVAAQELPKWKYAGGKVMPGLVRRRNAEVALFKKPSSVQAHPPKC
result_unit: mm
Diameter of clearing zone (mm): 11
//
molecule: SEQ ID NO: 270: mature GH24 catalytic domain from Trichophaea saccata with QCVG-linker (SEQ ID NO: 257 lacking the LED) (protein) QCVGCKPPPINAATVALIKEFEGFVPKPAPDPIGLPTVGYGHLCKTKGCKEVPYSFPLTQETATKLLQSDIKTFTSCVSNYVKDSVKLNDNQYGALASWAFNVGCGNVQTSSLIKRLNAGENPNTVAAQELPKWKYAGGKVMPGLVRRRNAEVALFKKPSSVQAHPPKC
result_unit: mm
Diameter of clearing zone (mm): 0
